A collection of compounds and their measured composite Z-score
assay_procedure: small-molecule microarray binders of probe aXIP, primary screen, biochemical, NeuroSMM set, 635/667 nm fluorescence (AID 1119);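 also: probe is the protein aXip251-270 applied at 1 µg/mL to compound-printed slides; binding of probe to printed compounds measured as 667 nm fluorescence plus signal to noise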
measurement_setup: higher = more signal, called active from +8 up or from −8 down

# compound, composite Z-score
data = [
    ("COC(=O)C(CC#Cc1ccc2c(c1)[C@]1(C(=O)N2)[C@H](c2ccccc2OCCO)N2[C@H](c3ccccc3)[C@H](c3ccccc3)OC(=O)[C@H]2[C@@H]1C(=O)NC[C@H](O)c1ccccc1)C(=O)OC", 0.231),
    ("COc1ccc([Si](C)(C)[C@@H]2[C@@H](CC(=O)N(CCO)Cc3ccccc3)O[C@]3(C(=O)N(c4ccccc4)c4ccccc43)[C@H]2C)cc1", 0.657),
    ("O=C1NC(=O)C2C1C=CC(C(O)c1c(F)cccc1Cl)N2Nc1ccc(Cl)cc1Cl (stereo unspecified)", 0.122),
    ("CCCCC(=C=CC[C@@H](O)c1ccccc1OCCO)C[C@@H](O)COCc1ccccc1", -0.0202),
    ("CC(C)OC(=O)C=C1C[C@@H](c2ccc(C(F)(F)F)cc2)O[C@@H](c2ccc(C(F)(F)F)cc2)O1", -0.451),
    ("COc1ccc([Si](C)(C)[C@H]2[C@H](CC(=O)N(CCO)Cc3ccccc3)O[C@@]3(C(=O)N(Cc4cccc(N5CCOC5=O)c4)c4ccccc43)[C@@H]2C)cc1", 0.897),
    ("COCCCNC(=O)[C@@]1(Cc2ccccc2CN=[N+]=[N-])N=C(c2ccc(OCCCO)cc2)O[C@H]1c1ccccc1", 0.443),
    ("COc1ccc([Si](C)(C)[C@@H]2[C@@H](CC(=O)N3Cc4ccccc4C[C@H]3CO)O[C@]3(C(=O)N(C)c4ccccc43)[C@H]2C)cc1", 1.22),
    ("COc1ccc(NC(=O)O[C@H]2[C@H](OC(=O)Nc3ccccc3)[C@@H](OC(=O)Nc3ccccc3)[C@@H](OC)O[C@@H]2CO)cc1", -0.275),
    ("O=C1O[C@H](c2ccccc2)[C@H](c2ccccc2)N2[C@H]1[C@@H](C(=O)Nc1nc3ccccc3s1)[C@]1(C(=O)Nc3ccccc31)[C@H]2c1ccc(OCCO)cc1", -0.393),
    ("COCCOC(=O)N1C(=O)[C@@]2(c3cc(C#CCC(C(=O)OC)C(=O)OC)ccc31)[C@H](C(=O)N1CCc3cc(OC)c(OC)cc3C1)[C@H]1C(=O)O[C@H](c3ccccc3)[C@H](c3ccccc3)N1[C@@H]2c1ccc(OCCO)cc1", 0.654),
    ("COc1ccc(C#Cc2ccc3c(c2)[C@]2(C(=O)N3)[C@H](c3ccc(O)cc3)N3[C@H](c4ccccc4)[C@H](c4ccccc4)OC(=O)[C@H]3[C@@H]2C(=O)O)cc1", 0.708),
    ("COc1ccccc1CN1C(=O)c2ccccc2[C@@]2(Cc3ccccc3N(CC(F)(F)F)C2=O)[C@@H]1c1ccc(CO)cc1", -0.137),
    ("CC(C)C(=C=CC[C@H](O)c1ccc(OCCO)cc1)C[C@H](O)c1ccccn1", 0.168),
    ("CC(C)[Si](C#C[Si](C(C)C)(C(C)C)C(C)C)(O[C@H](C)c1cn([C@H](CO)Cc2ccccc2)nn1)C(C)C", -0.397),
    ("C[N+](C)(C)CCCCCCNC(=O)[C@H]1C[C@H]2C(=O)N[C@@H](Cc3ccccc3)C(=O)N2[C@H]1c1ccc(O)cc1", -0.505),
    ("COCCOC(=O)N1C(=O)[C@@]2(c3cc(C#Cc4ccc(OC)cc4)ccc31)[C@H](c1ccc(O)cc1)N1[C@H](c3ccccc3)[C@H](c3ccccc3)OC(=O)[C@H]1[C@@H]2C(=O)N1CCCCCCC1", -0.182),
    ("N#Cc1ccc(NN2C(C(O)c3ccc(F)cc3)C=CC3C(=O)N(c4ccccc4)C(=O)C32)cc1 (stereo unspecified)", 0.383),
    ("COC(=O)[C@@]1(Cc2ccc(F)cc2)[C@H]2c3cc(C(=O)N4CCCC4)n(CCN4CNCC4=O)c3C[C@H]2CN1C(=O)c1ccccc1", -0.476),
    ("CCOc1cc(C(O)C2C=CC3C(=O)N(C)C(=O)C3N2Nc2ccccc2)ccc1O (stereo unspecified)", 0.765),
    ("CO[C@H]1O[C@H](CO)[C@@H](OC(=O)Nc2ccc3c(c2)OCO3)[C@H](OC(=O)c2cc3ccccc3[nH]2)[C@H]1OC(=O)c1cc2ccccc2[nH]1", 0.993),
]

This collection of values is drawn from PubChem BioAssay.
